The entries below come with measured sensor-assay potency score (higher = more potent) values attached.
Biological target: MUDENG; also: reference of the scale not given here
Test: pooled miR-30 sensor sort-seq; sequence = guide strand
Settings: shRNA
reported_metric: sensor-assay potency score (higher = more potent)

{"columns": ["chain_sequence", "measured_target", "readout_number"],
 "data": [
  ["TAAGATCCTAAAATGAAGCTTT", "MUDENG", 0.347],
  ["TTATTGATGCGTGAACAGCTAT", "MUDENG", -0.441],
  ["TATCCTGAAGTGGAGATCCATT", "MUDENG", -1.27],
  ["TAGTTTTGTATTCCAAATGTGT", "MUDENG", -0.698],
  ["TAACATTTGGCATGATTCCTTC", "MUDENG", -0.439],
  ["TTCTTAGTTGTACTTCTTCCTC", "MUDENG", -1.23],
  ["TAATCTAAGTTCAAAGAGCAGT", "MUDENG", -0.489]
]}
